Please respond with reported IC50 for every item in the list.
Test system: Plasmodium falciparum
ASSAY DETAILS: Antimalarial activity against Plasmodium falciparum HB3
Assay type: functional, organism-based
Give your result in nM as a bare value.

Request: State measured IC50 of the molecule C[C@@H]1CCC2[C@@H](C)[C@@H](OCc3ccc(CN4CCCCC4)cc3)OC3O[C@@]4(C)CC[C@@H]1[C@]32OO4 (stereo partly drawn) with Plasmodium falciparum.
Response: 12.2

Request: State measured IC50 of the molecule CNCCO[C@H]1OC2O[C@@]3(C)CC[C@H]4[C@H](C)CCC([C@H]1C)[C@@]24OO3 (stereo partly drawn) with Plasmodium falciparum.
Response: 2.7

Request: State measured IC50 of the molecule C[C@@H]1CCC2[C@@H](C)[C@@H](OCc3ccc(CO)cc3)OC3O[C@@]4(C)CC[C@@H]1[C@]32OO4 (stereo partly drawn) with Plasmodium falciparum.
Response: 4.2

Request: State measured IC50 of the molecule CCNCCO[C@H]1OC2O[C@@]3(C)CC[C@H]4[C@H](C)CCC([C@H]1C)[C@@]24OO3 (stereo partly drawn) with Plasmodium falciparum.
Response: 4.1

Request: State measured IC50 of the molecule C[C@@H]1CCC2[C@@H](C)[C@@H](OCc3ccc(CN4CCCC4)cc3)OC3O[C@@]4(C)CC[C@@H]1[C@]32OO4 (stereo partly drawn) with Plasmodium falciparum.
Response: 2.3

Request: State measured IC50 of the molecule C[C@@H]1CC[C@H]2[C@@H](C)C(=O)O[C@@H]3O[C@@]4(C)CC[C@@H]1[C@]32OO4 with Plasmodium falciparum.
Response: 7.3

Request: State measured IC50 of the molecule CCN(CC)Cc1ccc(CO[C@H]2OC3O[C@@]4(C)CC[C@H]5[C@H](C)CCC([C@H]2C)[C@@]35OO4)cc1 (stereo partly drawn) with Plasmodium falciparum.
Response: 3.1

Request: State measured IC50 of the molecule C[C@@H]1CCC2[C@@H](C)[C@@H](OCc3ccc(CN4CCOCC4)cc3)OC3O[C@@]4(C)CC[C@@H]1[C@]32OO4 (stereo partly drawn) with Plasmodium falciparum.
Response: 50
